Documented pIC50 across a set of compounds
SYSTEM TESTED: UniProtKB Q8NET8
ASSAY NOTES: Screening for TRPV3 antagonist using the 45Calcium uptake assay (inhibition of 2-APB induced cellular uptake of radioactive calcium)
CONDITION DESCRIPTION: human TRPV3 expressing CHO cells; 2-APB 500 μM; class symbols
Procedure: The illustrative examples of the present invention are screened for TRPV3 activity according to a modified procedure described in Tóth, A., Kedei, N., Wang, Y. and Blumberg, P. M. Life Sciences (2003), 73, 487-498. […] The inhibition of TRPV3 receptor activation was followed as inhibition of 2-aminoethoxydiphenylborate (2-APB) induced cellular uptake of radioactive calcium. […] Radioactivity in the lysate was measured in Packardt Top count after addition of liquid scintillant. […]
pIC50: −log10 of the molar value.

                              record_smiles  experimental_endpoint  value_observed
0  COc1cccc(/C=C/c2nc3sccn3c(=O)c2-c2ccc(C#N)cc2)c1OCC(C)(C)C                  pIC50          > 6.60
1  COc1ccc(-c2c(/C=C/c3cccc(OC)c3OCC3CC3)nc3sccn3c2=O)cc1                  pIC50    6.00 to 6.30

Asked: Suppose we examine the compound COc1cccc(/C=C/c2nc3sccn3c(=O)c2-c2ccc(C(C)(C)C)cc2)c1OCC1CC1 ; what pIC50 value has been reported?
Given back: 6.30 to 6.60

Asked: Suppose we examine the compound COc1cccc(/C=C/c2nc3sccn3c(=O)c2-c2ccc(OC(F)(F)F)cc2)c1OCCC(C)C ; what pIC50 value has been reported?
Given back: > 6.60

###

Documented inhibition at 1 µM across a set of compounds
SYSTEM TESTED: Human TRPV3 (Homo sapiens, UniProt Q8NET8)
Construct: expressed in transfected cells; host or cells: CHO cells (G-418 selection)
Sequence (Q8NET8 1-790): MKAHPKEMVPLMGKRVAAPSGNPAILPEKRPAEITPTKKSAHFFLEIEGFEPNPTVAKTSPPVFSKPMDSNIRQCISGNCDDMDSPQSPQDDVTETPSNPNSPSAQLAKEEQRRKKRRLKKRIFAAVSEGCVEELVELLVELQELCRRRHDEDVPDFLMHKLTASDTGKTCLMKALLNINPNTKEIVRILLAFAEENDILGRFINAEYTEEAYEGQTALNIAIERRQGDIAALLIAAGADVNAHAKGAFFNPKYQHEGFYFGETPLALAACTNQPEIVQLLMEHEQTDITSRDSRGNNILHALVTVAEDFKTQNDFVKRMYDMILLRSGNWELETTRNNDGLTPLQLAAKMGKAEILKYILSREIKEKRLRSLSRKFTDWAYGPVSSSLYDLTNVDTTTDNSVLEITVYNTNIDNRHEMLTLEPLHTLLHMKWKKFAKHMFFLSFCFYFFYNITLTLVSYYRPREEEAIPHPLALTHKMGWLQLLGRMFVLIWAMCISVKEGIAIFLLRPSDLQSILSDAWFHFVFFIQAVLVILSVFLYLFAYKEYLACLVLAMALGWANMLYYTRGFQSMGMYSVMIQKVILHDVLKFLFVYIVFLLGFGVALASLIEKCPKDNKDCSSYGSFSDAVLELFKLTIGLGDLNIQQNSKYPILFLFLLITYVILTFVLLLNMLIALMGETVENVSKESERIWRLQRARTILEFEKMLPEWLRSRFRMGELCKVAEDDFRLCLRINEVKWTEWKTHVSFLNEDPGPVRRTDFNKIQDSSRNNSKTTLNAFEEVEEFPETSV
ASSAY NOTES: Screening for TRPV3 antagonist using the 45Calcium uptake assay (inhibition of 2-APB induced cellular uptake of radioactive calcium)
Assay type: cell-based
CONDITION DESCRIPTION: 1.0 μM test compound; human TRPV3 expressing CHO cells; 2-APB 500 μM; read-out: Percentage inhibition at 1.0 μM
Description: The illustrative examples of the present invention are screened for TRPV3 activity according to a modified procedure described in Tóth, A., Kedei, N., Wang, Y. and Blumberg, P. M. Life Sciences (2003), 73, 487-498. […] The inhibition of TRPV3 receptor activation was followed as inhibition of 2-aminoethoxydiphenylborate (2-APB) induced cellular uptake of radioactive calcium. […] Radioactivity in the lysate was measured in Packardt Top count after addition of liquid scintillant. […]
// return numeric value only (unit: %, not printed)

Observe how each entry below is paired with its result.
In [3]: df
Out[3]:
                              record_smiles                             system_tested  experimental_endpoint  value_observed
0  COc1cccc(/C=C/c2nc3sc(Cl)cn3c(=O)c2-c2ccc(N(C)C)cc2)c1OCC(C)C  Human TRPV3 (Homo sapiens, UniProt Q8NET8)     inhibition at 1 µM            64.3
1  CCOCCOc1c(/C=C/c2nc3sc4ccccc4n3c(=O)c2-c2ccc(OC(F)(F)F)cc2)cccc1OC  Human TRPV3 (Homo sapiens, UniProt Q8NET8)     inhibition at 1 µM            20.2
2  COc1cccc(/C=C/c2nc3sccn3c(=O)c2-c2ccc(N(C)C)cc2)c1OCC1CC1  Human TRPV3 (Homo sapiens, UniProt Q8NET8)     inhibition at 1 µM              76

Asked: Suppose we examine the compound COc1cccc(/C=C/c2nc3sccn3c(=O)c2-c2ccc(OC(F)(F)F)cc2)c1OCCC(F)(F)F ; what inhibition at 1 µM value has been reported?
Given back: 90.8
